B1: library; numbered along this chain (parent)
chain: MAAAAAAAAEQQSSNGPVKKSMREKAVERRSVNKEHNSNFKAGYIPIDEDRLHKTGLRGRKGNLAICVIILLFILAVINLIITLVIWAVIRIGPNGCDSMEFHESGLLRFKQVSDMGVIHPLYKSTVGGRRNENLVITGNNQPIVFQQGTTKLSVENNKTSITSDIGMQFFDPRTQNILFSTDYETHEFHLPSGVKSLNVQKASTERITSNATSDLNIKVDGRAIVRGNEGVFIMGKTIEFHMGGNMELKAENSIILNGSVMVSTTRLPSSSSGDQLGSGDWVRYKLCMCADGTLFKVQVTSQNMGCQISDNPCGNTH

Variants of: B1
Assay: SGCB cell-surface expression functional score (HA stain, bin4 vs bin1, normalised to synonymous) (log10 ratio); higher = more cell-surface SGCB (functional)
Lab note: anything with SGCB cell-surface expression functional score (log10) at or over -0.2 counts as label 1; the rest go in label 0.

Example cases with answers are listed next.
mutation_list=F189G group_label="label 0"
mutation_list=N246D group_label="label 1"
mutation_list=S13I group_label="label 1"

Determine whether measured SGCB cell-surface expression functional score (log10) meets or exceeds -0.2 for L64P
label 0

Determine whether measured SGCB cell-surface expression functional score (log10) meets or exceeds -0.2 for T265C
label 0

Determine whether measured SGCB cell-surface expression functional score (log10) meets or exceeds -0.2 for A291H
label 0

Determine whether measured SGCB cell-surface expression functional score (log10) meets or exceeds -0.2 for L64N
label 1

Determine whether measured SGCB cell-surface expression functional score (log10) meets or exceeds -0.2 for D292R
label 0

Determine whether measured SGCB cell-surface expression functional score (log10) meets or exceeds -0.2 for G228M
label 1

Determine whether measured SGCB cell-surface expression functional score (log10) meets or exceeds -0.2 for T126Y
label 1

Determine whether measured SGCB cell-surface expression functional score (log10) meets or exceeds -0.2 for T213M
label 1

Determine whether measured SGCB cell-surface expression functional score (log10) meets or exceeds -0.2 for L107V
label 0

Determine whether measured SGCB cell-surface expression functional score (log10) meets or exceeds -0.2 for N15C
label 1

Determine whether measured SGCB cell-surface expression functional score (log10) meets or exceeds -0.2 for E49R
label 1
